B1: POU domain, class 3, transcription factor 2, residues 356 to 411; numbered along this chain, P20265 (parent)
chain: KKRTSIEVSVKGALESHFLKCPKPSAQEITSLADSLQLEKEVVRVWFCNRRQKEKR

variants of: B1; experiment: abundance fitness (aPCA) (normalised: wild type 0, dead -1); higher = more abundant; growth selection in yeast, the domain comes from the species named; details: Homo sapiens
Answer each item with its documented abundance fitness.
One number for each entry.

Observe how each entry below is paired with its result.
>  <Seq Text>
KWRTSIEVSVKGALESHFLKCPKPSAQEITSLADSLQLEKEVVRVWFCNRRQKEKR [K2W]

>  <abundance fitness>
-0.246

$$$$
>  <Seq Text>
KKRTSIEVSVKGALESHFLKCAKPSAQEITSLADSLQLEKEVVRVWFCNRRQKEKR [P22A]

>  <abundance fitness>
-0.044

$$$$
>  <Seq Text>
KKRTSIEVSVKGALESHFLKCPKPSAQEITSLADSLQLEKEMVRVWFCNRRQKEKR [V42M]

>  <abundance fitness>
-0.299

$$$$
>  <Seq Text>
KKRTSIEVSVKGALESHFGKCPKPSAQEITSLADSLQLEKEVVRVWFCNRRQKEKR [L19G]

>  <abundance fitness>
-0.245

$$$$
>  <Seq Text>
KKRTSIEVHVKGALESHFLKCPKPSAQEITSLADSLQLEKEVVRVWFCNRRQKEKR [S9H]

>  <abundance fitness>
0.057

$$$$

Return reported abundance fitness values for all items listed beneath this line.
1. KKRTSIEVSVKGALESHFLKCPKPSAQEITSLADSLQLEKEVVVVWFCNRRQKEKR [R44V]
2. KKLTSIEVSVKGALESHFLKCPKPSAQEITSLADSLQLEKEVVRVWFCNRRQKEKR [R3L]
3. GKRTSIEVSVKGALESHFLKCPKPSAQEITSLADSLQLEKEVVRVWFCNRRQKEKR [K1G]
4. KKRTSIEVSVKGALESHFLKCPKPSAQEITSLADSLQLEKFVVRVWFCNRRQKEKR [E41F]
5. KCRTSIEVSVKGALESHFLKCPKPSAQEITSLADSLQLEKEVVRVWFCNRRQKEKR [K2C]
6. KKRTSIEVSVKGALESHFLKCPKPSAQEITSLADGLQLEKEVVRVWFCNRRQKEKR [S35G]
7. KKRTSIAVSVKGALESHFLKCPKPSAQEITSLADSLQLEKEVVRVWFCNRRQKEKR [E7A]
8. KKRTSIEVSVKGALESHFLKCPKWSAQEITSLADSLQLEKEVVRVWFCNRRQKEKR [P24W]

[-0.38, 0.01, -0.214, -0.723, -0.395, -0.033, -0.039, -0.839]
